Reported RU is given for each of the following binders.
# assayed.target: gEgI WT: HSV2 gEgI heterodimer comprising gE and gI wildtype ectodomains (HSV2, UniProt P89475 21-416; P06764 21-256)
# experimental.protocol: SPR binning; gEgI captured by mAb 9
Give your result in RU as a bare value.

In the examples that follow, each entry is paired with its recorded RU.
INSERT INTO measurements (binder, observed) VALUES
  ('mAb clone 40 (antibody, V domains shown) VH: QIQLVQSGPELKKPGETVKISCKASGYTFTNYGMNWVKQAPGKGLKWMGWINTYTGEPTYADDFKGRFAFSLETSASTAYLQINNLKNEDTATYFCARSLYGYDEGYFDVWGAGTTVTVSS VL: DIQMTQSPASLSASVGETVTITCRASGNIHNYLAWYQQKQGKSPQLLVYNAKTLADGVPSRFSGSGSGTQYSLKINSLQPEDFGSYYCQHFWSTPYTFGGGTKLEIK', 8.8),
  ('mAb clone 19 (antibody, V domains shown) VH: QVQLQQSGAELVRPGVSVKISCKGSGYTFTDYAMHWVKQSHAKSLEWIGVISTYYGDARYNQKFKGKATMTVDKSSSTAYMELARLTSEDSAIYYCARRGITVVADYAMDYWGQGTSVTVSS VL: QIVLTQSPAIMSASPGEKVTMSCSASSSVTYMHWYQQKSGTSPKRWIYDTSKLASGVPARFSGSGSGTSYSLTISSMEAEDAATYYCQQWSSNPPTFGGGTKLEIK', 6.4),
  ('mAb clone 20 (antibody, V domains shown) VH: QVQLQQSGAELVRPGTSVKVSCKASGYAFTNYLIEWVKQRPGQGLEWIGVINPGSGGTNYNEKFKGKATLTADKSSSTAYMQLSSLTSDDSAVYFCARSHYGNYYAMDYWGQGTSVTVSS VL: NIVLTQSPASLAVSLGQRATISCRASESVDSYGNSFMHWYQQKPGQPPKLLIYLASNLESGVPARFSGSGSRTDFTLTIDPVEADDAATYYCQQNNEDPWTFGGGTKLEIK', 13),
  ('mAb clone 17 (antibody, V domains shown) VH: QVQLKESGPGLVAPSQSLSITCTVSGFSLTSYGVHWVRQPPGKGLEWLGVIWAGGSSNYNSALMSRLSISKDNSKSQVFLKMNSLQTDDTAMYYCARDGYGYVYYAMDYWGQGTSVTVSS VL: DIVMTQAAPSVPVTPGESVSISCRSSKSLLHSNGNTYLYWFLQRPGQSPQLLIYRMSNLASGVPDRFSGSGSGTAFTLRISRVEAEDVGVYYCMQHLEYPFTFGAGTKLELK', -0.5),
  ('mAb clone 39 (antibody, V domains shown) VH: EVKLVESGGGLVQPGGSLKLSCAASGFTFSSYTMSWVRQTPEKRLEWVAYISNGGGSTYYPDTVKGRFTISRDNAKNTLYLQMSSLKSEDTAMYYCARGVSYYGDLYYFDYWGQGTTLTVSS VL: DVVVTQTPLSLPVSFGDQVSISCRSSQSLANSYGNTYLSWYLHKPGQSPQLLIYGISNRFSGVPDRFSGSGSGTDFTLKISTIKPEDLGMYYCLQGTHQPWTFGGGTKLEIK', -1.5);

Attention now turns to another entry.
**Q:** What value of RU has been reported for the following binder? mAb clone 15 (antibody, V domains shown) VH: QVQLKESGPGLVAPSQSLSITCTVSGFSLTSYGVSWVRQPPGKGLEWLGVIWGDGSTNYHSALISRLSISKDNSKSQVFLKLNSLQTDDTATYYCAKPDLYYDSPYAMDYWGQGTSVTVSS VL: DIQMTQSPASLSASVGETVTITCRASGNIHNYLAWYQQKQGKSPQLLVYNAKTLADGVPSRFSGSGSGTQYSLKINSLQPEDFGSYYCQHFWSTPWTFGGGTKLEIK
**A:** 12.7
